System: H526 cells
condition-label: human, 72 h
measurement-label: IC50 (µM)
Use µM as the unit, but write only the number.

-- ask Lookup: IC50 / H526 cells / C[NH+]1CCN(C(=O)C2C(C(=O)O)[C@H]3CC[C@@H]2O3)CC1 (stereo in doubt) [LB-100]
-- reply 7.2

====

System: H524 cells
protocol-description: Cell Counting Kit-8 cytotoxicity and drug combination, H524
condition-label: read-out: Cytotoxicity IC50; H524; 72 hours
measurement-label: IC50 (µM)
Answer in µM, number only, no unit symbol.

-- ask # IC50 lookup, item N.N.O=C([O-])C1(C(=O)[O-])CCC1.[Pt+2] [Carboplatin, reference compound]
-- reply 8.2
